Provenance of the data: paper PMC7247425

assay: Hemato-chemical parameters and tolerability in treated mice; type: in vivo; details: blood after euthanasia day 21; i.p. treatment day 1, 7, 14; means ± SD, n = 8
measurement_type: ALT (U/L)
Dear colleague, please return just the value in U/L, with no unit written.

CN(C)C(=O)CCSC(SCCC(=O)O)c1cccc(/C=C/c2ccc3ccc(Cl)cc3n2)c1 (stereo not shown) [MK571, reference compound]: 41
COc1ccc(CNCCCCc2cn(-c3ccc(F)cc3)c3ccccc23)cc1OC: 33
N.N.[Cl][Pt][Cl] [Cis-Pt, cis-platinum, reference compound]: 41

Now turn to the next compound.
Param item = COc1cc2c(cc1OC)CN(CCCCc1cn(-c3ccc(F)cc3)c3ccccc13)CC2 ; retrieve measured ALT.
37

----------
CPK by entry:
experiment: Hemato-chemical parameters and tolerability in treated mice; format: in vivo; conditions: blood after euthanasia day 21; i.p. treatment day 1, 7, 14; means ± SD, n = 8
Give a bare numeral; the unit U/L is implied.

COc1cc2c(cc1OC)CN(CCCCc1cn(-c3ccc(F)cc3)c3ccccc13)CC2: 324
CN(C)C(=O)CCSC(SCCC(=O)O)c1cccc(/C=C/c2ccc3ccc(Cl)cc3n2)c1 (stereo not shown) [MK571, reference compound]: 334
COc1ccc(CNCCCCc2cn(-c3ccc(F)cc3)c3ccccc23)cc1OC: 321

Field: next molecule
Form field: reported CPK of N.N.[Cl][Pt][Cl] [Cis-Pt, cis-platinum, reference compound]
259

----------
assay: Hemato-chemical parameters and tolerability in treated mice; format: in vivo; details: blood after euthanasia day 21; i.p. treatment day 1, 7, 14; means ± SD, n = 8
measurement_type: LDH (U/L)
Dear colleague, please return just the value in U/L, with no unit written.

Dear colleague, I am looking for the recorded LDH of the following compound: COc1ccc(CNCCCCc2cn(-c3ccc(F)cc3)c3ccccc23)cc1OC [F421]
7182

----------
test: Hemato-chemical parameters and tolerability in treated mice; format: in vivo; conditions: blood after euthanasia day 21; i.p. treatment day 1, 7, 14; means ± SD, n = 8
measurement_type: AST
Write the quantity with the unit trailing the number.

Recorded results for 3 compounds are shown here.
CN(C)C(=O)CCSC(SCCC(=O)O)c1cccc(/C=C/c2ccc3ccc(Cl)cc3n2)c1 (stereo not shown) [MK571, reference compound]: 101 ± 33 U/L
COc1ccc(CNCCCCc2cn(-c3ccc(F)cc3)c3ccccc23)cc1OC: 82 ± 37 U/L
COc1cc2c(cc1OC)CN(CCCCc1cn(-c3ccc(F)cc3)c3ccccc13)CC2: 81 ± 24 U/L

Proceeding to the next compound to report its AST.
// lookup AST for N.N.[Cl][Pt][Cl] [Cis-Pt, cis-platinum, reference compound]
91 ± 34 U/L

----------
tested on: MDCK-MRP1 cells; experiment: Antiproliferative MTT assay in MDCK-wt and MDCK-MRP1 cells, selectivity ratio; format: cell-based, canine; settings: EC50 of MDCK cells/EC50 of MDCK-MRP1 cells
measurement_type: SR (selectivity ratio)
Give the figure only, with no unit attached.

COc1ccc(CNCCCCc2cn(-c3ccc(F)cc3)c3ccccc23)cc1OC [F421]: 2.47

// query SR (selectivity ratio) value for entry COc1cc2c(cc1OC)CN(C(=O)CCC1CCCc3c(OC)cccc31)CC2 (stereo not shown) [F400]
5.91

Quick one: SR (selectivity ratio) for Fc1ccc(-n2cc(CCCCN3CCC4(CC3)OCc3ccccc34)c3ccccc32)cc1 [Siramesine, siramesine, reference compound] ?
0.56

Entry under review: COc1cc2c(cc1OC)CN(CCCCc1cn(-c3ccc(F)cc3)c3ccccc13)CC2 [F397] . Reported SR (selectivity ratio)?
3.41
